- System: P. falciparum Dd2
- Assay Name: In vitro antiplasmodial activity, Dd2, 72 h [3H]hypoxanthine incorporation
- Assay type: cell-based
- Protocol Conditions: Plasmodium falciparum, DD2, read-out: P. falciparum IC50 Dd2
Reported Endpoint: pIC50
Give only the number. pIC50 is defined as minus log10 of concentration in molar units.

Task: // fetch pIC50 given entry CCN(CC)CCCC(C)Nc1ccnc2cc(Cl)ccc12 (stereo not drawn) [Chloroquine, chloroquine]
Output: 6.74

Task: // fetch pIC50 given entry C[C@H]1[C@H](OC(=O)CCC(=O)O)O[C@@H]2O[C@@]3(C)CC[C@H]4[C@H](C)CC[C@@H]1[C@@]24OO3 [Artesunate, artesunate]
Output: 8.21

Task: // fetch pIC50 given entry CCOC(=O)c1ccc2c(c1)C(=O)CCc1ccccc1C(=O)N2 [Compound 18]
Output: 7.52

---

- Assay Name: In vitro intrinsic clearance in human liver microsomes
- Format: in vitro ADME
- Protocol Conditions: human, liver microsomes, h CLint
Reported Endpoint: microsomal CLint (µL/min/mg)
Please give a number only; it is taken to be in µL/min/mg.

Task: // fetch microsomal CLint given entry O=C1CCc2c(O)cccc2C(=O)Nc2ccccc21 [Compound 35]
Output: 16

Task: // fetch microsomal CLint given entry CO/N=C1\CCc2ccccc2C(=O)Nc2ccccc21 [Compound 11]
Output: 11

Task: // fetch microsomal CLint given entry CS(=O)(=O)c1ccc2c(c1)C(=O)CCc1ccccc1C(=O)N2 [Compound 23]
Output: 46

Task: // fetch microsomal CLint given entry O=C1Nc2ccccc2CCCc2ccccc21 [Compound 13]
Output: 62

Task: // fetch microsomal CLint given entry O=C1Nc2ccccc2C(=O)CCc2ccc(O)cc21 [Compound 37]
Output: 7

Task: // fetch microsomal CLint given entry O=C1Nc2ccccc2C(O)CCc2ccccc21 (centres unmarked) [Compound 12]
Output: 11

Task: // fetch microsomal CLint given entry O=C1Nc2ccccc2C(=NO)CCc2ccccc21 [Compound 10]
Output: 22

Task: // fetch microsomal CLint given entry O=C1Nc2ccccc2C(=O)CCCc2ccccc21 [Compound 6]
Output: 14

Task: // fetch microsomal CLint given entry O=C1Nc2ccc(OC(F)(F)F)cc2C(=O)CCc2ccccc21 [Compound 26]
Output: 240

Task: // fetch microsomal CLint given entry O=C(O)c1ccc2c(c1)C(=O)CCc1ccccc1C(=O)N2 [Compound 19]
Output: 12

Task: // fetch microsomal CLint given entry O=C1Nc2ccc(C(=O)N3CCOCC3)cc2C(=O)CCc2ccccc21 [Compound 21]
Output: 11

Task: // fetch microsomal CLint given entry O=C1Nc2ccc(S(F)(F)(F)(F)F)cc2C(=O)CCc2ccccc21 [Compound 27]
Output: 190

Task: // fetch microsomal CLint given entry O=C1CCc2ncccc2C(=O)Nc2ccccc21 [Compound 30]
Output: 19

Task: // fetch microsomal CLint given entry O=C1Nc2ccccc2C(=O)CCc2cc(F)ccc21 [Compound 32]
Output: 11

Task: // fetch microsomal CLint given entry O=C1Nc2cc(F)cc(F)c2C(=O)CCc2ccccc21 [Compound 28]
Output: 17

Task: // fetch microsomal CLint given entry COc1ccc2c(c1)C(=O)CCc1ccccc1C(=O)N2 [Compound 17]
Output: 23

Task: // fetch microsomal CLint given entry O=C1Nc2ccccc2C(=O)CCc2ccc(F)cc21 [Compound 36]
Output: 13

Task: // fetch microsomal CLint given entry CCOC(=O)c1ccc2c(c1)C(=O)CCc1ccccc1C(=O)N2 [Compound 18]
Output: 100

Task: // fetch microsomal CLint given entry O=C1Nc2ccc(C(F)(F)F)cc2C(=O)CCc2ccccc21 [Compound 25]
Output: 240

Task: // fetch microsomal CLint given entry O=C1Oc2ccccc2C(=O)CCc2ccccc21 [Compound 16]
Output: 14

Task: // fetch microsomal CLint given entry O=C1CCc2ccccc2C(=O)c2ccccc2N1 [Compound 9]
Output: 7

Task: // fetch microsomal CLint given entry O=C1Nc2ccc(F)cc2C(=O)CCc2ccccc21 [Compound 24]
Output: 38

Task: // fetch microsomal CLint given entry CN1C(=O)c2ccccc2CCC(=O)c2ccccc21 [Compound 14]
Output: 110

Task: // fetch microsomal CLint given entry O=C1Nc2ccccc2C(=O)CCc2cc(O)ccc21 [Compound 34]
Output: 61

Task: // fetch microsomal CLint given entry N#Cc1ccc2c(c1)C(=O)CCc1ccccc1C(=O)N2 [Compound 22]
Output: 23

---

- Assay Name: In vitro intrinsic clearance in mouse liver microsomes
- Type: in vitro ADME
Provide the recorded microsomal CLint for the entries that follow.
Please give a number only; it is taken to be in µL/min/mg.

Task: // fetch microsomal CLint given entry O=C1Nc2ccc(C(=O)N3CCOCC3)cc2C(=O)CCc2ccccc21 [Compound 21]
Output: 15

Task: // fetch microsomal CLint given entry O=C1Nc2ccccc2C(=O)CCc2cc(F)ccc21 [Compound 32]
Output: 110

Task: // fetch microsomal CLint given entry O=C1Nc2ccc(OC(F)(F)F)cc2C(=O)CCc2ccccc21 [Compound 26]
Output: 110

Task: // fetch microsomal CLint given entry N#Cc1ccc2c(c1)CCC(=O)c1ccccc1NC2=O [Compound 33]
Output: 160

Task: // fetch microsomal CLint given entry O=C1Nc2ccccc2C(=O)CCc2cc(O)ccc21 [Compound 34]
Output: 84

Task: // fetch microsomal CLint given entry N#Cc1ccc2c(c1)C(=O)CCc1ccccc1C(=O)N2 [Compound 22]
Output: 20

Task: // fetch microsomal CLint given entry O=C1Nc2ccccc2C(=O)CCc2ccc(F)cc21 [Compound 36]
Output: 43

Task: // fetch microsomal CLint given entry O=C1CCc2ncccc2C(=O)Nc2ccccc21 [Compound 30]
Output: 18

---

- System: P. falciparum RF12
- Assay Name: In vitro antiplasmodial activity, RF12, 72 h [3H]hypoxanthine incorporation
- Type: cell-based
- Protocol Conditions: Plasmodium falciparum, read-out: P. falciparum IC50 RF12
Reported Endpoint: IC50 (nM)
Please give a number only; it is taken to be in nM.

Task: // fetch IC50 given entry C[C@H]1[C@H](OC(=O)CCC(=O)O)O[C@@H]2O[C@@]3(C)CC[C@H]4[C@H](C)CC[C@@H]1[C@@]24OO3 [Artesunate, artesunate]
Output: 6.8

Task: // fetch IC50 given entry CCN(CC)CCCC(C)Nc1ccnc2cc(Cl)ccc12 (stereo not drawn)
Output: 350

Task: // fetch IC50 given entry CCOC(=O)c1ccc2c(c1)C(=O)CCc1ccccc1C(=O)N2
Output: 11

---

- System: P. falciparum TM90C2B
- Format: cell-based
- Protocol Conditions: Plasmodium falciparum, read-out: P. falciparum IC50 TM90C2B
Provide the recorded pIC50 for the entries that follow.
Give only the number. pIC50 is defined as minus log10 of concentration in molar units.

Task: // fetch pIC50 given entry CCN(CC)CCCC(C)Nc1ccnc2cc(Cl)ccc12 (stereo not drawn)
Output: 6.80

Task: // fetch pIC50 given entry CCOC(=O)c1ccc2c(c1)C(=O)CCc1ccccc1C(=O)N2
Output: 6.00

Task: // fetch pIC50 given entry C[C@H]1[C@H](OC(=O)CCC(=O)O)O[C@@H]2O[C@@]3(C)CC[C@H]4[C@H](C)CC[C@@H]1[C@@]24OO3 [Artesunate, artesunate]
Output: 8.13

---

- Assay Name: In vitro intrinsic clearance in mouse liver microsomes
- Type: in vitro ADME
Provide the recorded microsomal CLint for the entries that follow.
The answer consists of two parts: a number and, after it, its unit.

Task: // fetch microsomal CLint given entry O=C1Nc2ccc(F)cc2C(=O)CCc2ccccc21
Output: 74 µL/min/mg

Task: // fetch microsomal CLint given entry CCOC(=O)c1ccc2c(c1)C(=O)CCc1ccccc1C(=O)N2
Output: 910 µL/min/mg

Task: // fetch microsomal CLint given entry COc1ccc2c(c1)C(=O)CCc1ccccc1C(=O)N2
Output: 440 µL/min/mg

Task: // fetch microsomal CLint given entry O=C1CCc2ccccc2C(=O)c2ccccc2N1
Output: 14 µL/min/mg

Task: // fetch microsomal CLint given entry CS(=O)(=O)c1ccc2c(c1)C(=O)CCc1ccccc1C(=O)N2
Output: 19 µL/min/mg

Task: // fetch microsomal CLint given entry O=C1Nc2ccccc2CCCc2ccccc21
Output: 81 µL/min/mg

Task: // fetch microsomal CLint given entry O=C1Nc2ccc(S(F)(F)(F)(F)F)cc2C(=O)CCc2ccccc21
Output: 71 µL/min/mg

Task: // fetch microsomal CLint given entry O=C1Nc2ccccc2C(=O)CCc2ccccc21
Output: 39 µL/min/mg

Task: // fetch microsomal CLint given entry O=C1Nc2ccccc2C(=O)CCCc2ccccc21
Output: 31 µL/min/mg

Task: // fetch microsomal CLint given entry O=C1CCc2c(O)cccc2C(=O)Nc2ccccc21
Output: 60 µL/min/mg

---

- Assay Name: In vivo pharmacokinetics in mice
- Parameters: species or system male Swiss outbred mice
- Protocol Conditions: male, Swiss outbred, mouse, plasma, po
Reported Endpoint: Cmax

Task: // fetch Cmax given entry O=C1Nc2cc(F)cc(F)c2C(=O)CCc2ccccc21 [Compound 28]
Output: ~500 ng/mL
